Measured on: recombinant HIV-1 NCp7 protein (Human immunodeficiency virus type 1 group M subtype B, UniProt P03347)
Construct: within the nucleocapsid p7 (NCp7) protein portion of the polyprotein
Method: Trp37 zinc finger fluorescence (zinc ejection) assay
Format: biochemical
Experimental conditions: Table 10; average decrease in relative fluorescence units over 30 min
# note: boundary value 2 RFU/ min maps to n; Zinc Finger Reactivity RFU/ min below it maps to y

Observe how each entry below is paired with its result.
Qu. A record lists "CC(=O)NS(=O)(=O)c1ccc(NC(=O)c2ccccc2SC(=O)CCC[n+]2ccccc2)cc1" . Is its Zinc Finger Reactivity RFU/ min below 2 RFU/ min?
Ans. n

Qu. Same question, "CC(=O)NS(=O)(=O)c1ccc(NC(=O)c2ccccc2SC(=O)CCCCC[n+]2ccccc2)cc1" this time
Ans. y

Qu. Item: "CC(=O)NS(=O)(=O)c1ccc(NC(=O)c2ccccc2SC(=O)CCCC[n+]2cccc(Cl)c2)cc1"
Ans. y

Qu. Field entry: "CC(=O)NS(=O)(=O)c1ccc(NC(=O)c2ccccc2NC(=O)CCCC[n+]2ccccc2)cc1"
Ans. n

Please examine the following record next.
Qu. Just wondering, is Zinc Finger Reactivity RFU/ min of "CC(=O)NS(=O)(=O)c1ccc(NC(=O)c2ccccc2SC(=O)CCCC[n+]2ccccc2)cc1" below 2 RFU/ min?
Ans. n
